tested on: NCI-H1618 multicellular tumor spheroid viability; assay: Anticancer human tumor NCI-H1618 cell line growth inhibition; details: second compound 0.000949 µM; first compound 3 µM; stronger effect = lower value;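 also: spheroids exposed to agents for 7 days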
Quick list: viability, T/C per entry.

Molecule	viability, T/C
CNCc1ccc(-c2cc(-c3nc(-c4ccc(S(=O)(=O)C(C)C)cc4)cnc3N)on2)cc1 + COc1cc2c(cc1O)CCNC21CSC2c3c(OC(C)=O)c(C)c4c(c3C(COC1=O)N1C(O)C3Cc5cc(C)c(OC)c(O)c5C(C21)N3C)OCO4	2.71%
Cc1sc2c(c1C)C(c1ccc(Cl)cc1)=NC(CC(=O)Nc1ccc(O)cc1)c1nnc(C)n1-2 (centres undefined) + COc1cc2c(cc1O)CCNC21CSC2c3c(OC(C)=O)c(C)c4c(c3C(COC1=O)N1C(O)C3Cc5cc(C)c(OC)c(O)c5C(C21)N3C)OCO4	0.37%
Cn1ncnc1[C@H]1c2n[nH]c(=O)c3cc(F)cc(c23)N[C@@H]1c1ccc(F)cc1 + COc1cc2c(cc1O)CCNC21CSC2c3c(OC(C)=O)c(C)c4c(c3C(COC1=O)N1C(O)C3Cc5cc(C)c(OC)c(O)c5C(C21)N3C)OCO4	4.06%
O=C(c1cc(Cc2n[nH]c(=O)c3ccccc23)ccc1F)N1CCN(C(=O)C2CC2)CC1 + COc1cc2c(cc1O)CCNC21CSC2c3c(OC(C)=O)c(C)c4c(c3C(COC1=O)N1C(O)C3Cc5cc(C)c(OC)c(O)c5C(C21)N3C)OCO4	3.86%

Where do the numbers come from? From PubChem BioAssay AID1845206.
